- method summary: Ocular tissue and plasma PK after repeated t.i.d. monocular dosing for 7 days
- Type: in vivo, pigmented rabbits
- condition description: pigmented NZW×NZR, rabbit, retina of the undosed (OS) eye, topical or ocular; Retina OS (undosed eye), 2% t.i.d. 7 days
assay metric: Tmax (h)
Write the value in h as a bare number.

Tmax reading for CNCc1cc(Oc2ccc3c(ccn3C(=O)Nc3cc(C(F)(F)F)n(C)n3)c2)ncn1 [LHA510] : 18

====

- method summary: Solubility in 8% HP-γ-CD in acetate buffer with different pH adjustment agents (Table III)
- Format: physicochemical
- condition description: pH 4.902, aqueous with cosolvent or surfactant or cyclodextrin, pH adjustment agent 1N Methanesulfonic acid, final pH 4.902, read-out: 1H-indole-1-carboxamide Solubility
assay metric: solubility (mg/mL)
Just the number please, in mg/mL, no unit attached.

Entry CNCc1cc(Oc2ccc3c(ccn3C(=O)Nc3cc(C(F)(F)F)n(C)n3)c2)ncn1 — recorded solubility = 32.6

====

- method summary: Ocular tissue and plasma PK after single unilateral topical dose
- Format: in vivo, pigmented NZW×NZR rabbits
- condition description: pigmented NZW×NZR, rabbit, single unilateral 30 μL dose at 0.5%, 1% and 2%, all ocular tissues and plasma except RPE/choroid
assay metric: Tmax

Entry CNCc1cc(Oc2ccc3c(ccn3C(=O)Nc3cc(C(F)(F)F)n(C)n3)c2)ncn1 ; Tmax = 0.5 to 3 h

====

- method summary: Equilibrium solubility in HPβCD or HPγCD in acetate (first Table I)
- Type: physicochemical
- condition description: 5% HPβCD in acetate, pH 4.67, aqueous with cosolvent or surfactant or cyclodextrin, thermodynamic from solid, 5% HPβCD in Acetate, pH 4.670, equilibrium solubility at day 3; read-out: 1H-indole-1-carboxamide Solubility
assay metric: solubility at 3 day (mg/mL)
Give the value, in units of mg/mL, as a plain number.

Lookup result for CNCc1cc(Oc2ccc3c(ccn3C(=O)Nc3cc(C(F)(F)F)n(C)n3)c2)ncn1 ; measured solubility at 3 day: 19.6

====

- method summary: Ocular tissue and plasma PK after repeated t.i.d. monocular dosing for 7 days
- Type: in vivo, pigmented rabbits
- condition description: NZW×NZR (pigmented), rabbit, topical; Plasma, 2% t.i.d. 7 days
assay metric: Cmax (ng/mL)
Please reply with the bare figure in ng/mL and do not write the unit itself.

In plain terms, CNCc1cc(Oc2ccc3c(ccn3C(=O)Nc3cc(C(F)(F)F)n(C)n3)c2)ncn1 has a documented Cmax of 1.85

====

- method summary: Ocular tissue and plasma PK after repeated t.i.d. monocular dosing for 7 days
- Format: in vivo, pigmented rabbits
- condition description: pigmented NZW×NZR, rabbit, retina of the dosed (OD) eye, topical or ocular; Retina OD (dosed eye), 2% t.i.d. 7 days
assay metric: Cmax (ng/g)
Field format: number, assumed ng/g, no unit text.

Recorded result, CNCc1cc(Oc2ccc3c(ccn3C(=O)Nc3cc(C(F)(F)F)n(C)n3)c2)ncn1 [LHA510] , Cmax: 122

====

- method summary: Solubility in 5% HP-β-CD at pH 4.5 versus pH 7 (Table II)
- Type: physicochemical
- condition description: 5% HP-β-CD in acetate buffer, aqueous with cosolvent or surfactant or cyclodextrin; 5% HP-β-CD/Acetate buffer/pH 4.5, final pH 4.64; read-out: 1H-indole-1-carboxamide Solubility
assay metric: solubility (mg/mL)
The reply should be a number in mg/mL, with the unit left off.

The compound listed as CNCc1cc(Oc2ccc3c(ccn3C(=O)Nc3cc(C(F)(F)F)n(C)n3)c2)ncn1 [LHA510] shows solubility equal to 11.7
